These measurements were taken from patent US10040783B2.

tested on: rat primary hippocampal cultures; test: NMDA-induced LDH release (excitotoxicity) in primary hippocampal cultures; type: cell-based; details: Rattus norvegicus; 10 μM compound; NMDA 30 μM plus glycine 10 μM overnight; read-out: NMDA-induced LDH release, % of control
READOUT LABEL: activity at 10 µM

Task: Request the reported activity at 10 µM associated with `COc1cc(C=CC(=O)NCCn2c(C)cc3cc(F)ccc32)cc(OC)c1OC`
Output: 38.5%

Task: Fill blank: measured activity at 10 µM of the compound `COc1ccc(/C=C/C(=O)NCCn2c(C)cc3ccccc32)cc1Cl` is ____.
Output: 78.4%

Task: Reported activity at 10 µM for `COc1ccc(C=CC(=O)NCCn2c(C)cc3ccccc32)cc1OC` : what is it?
Output: 77.8%

Task: Find the recorded activity at 10 µM belonging to `COc1cc(C=CC(=O)NCCn2c(C)cc3ccccc32)cc(OC)c1OC` and report it.
Output: 50.8%

###

molecular target: EP2 receptor (Homo sapiens); assay: Schild regression of PGE2-induced EP2 activation in C6G-EP2 cells; assay type: cell-based; set-up: expressed in transfected cells; host or cells: C6G-EP2 cells; conditions: additional compounds tables; read-out: EP2 KB
Sequence (P43116 whole entry): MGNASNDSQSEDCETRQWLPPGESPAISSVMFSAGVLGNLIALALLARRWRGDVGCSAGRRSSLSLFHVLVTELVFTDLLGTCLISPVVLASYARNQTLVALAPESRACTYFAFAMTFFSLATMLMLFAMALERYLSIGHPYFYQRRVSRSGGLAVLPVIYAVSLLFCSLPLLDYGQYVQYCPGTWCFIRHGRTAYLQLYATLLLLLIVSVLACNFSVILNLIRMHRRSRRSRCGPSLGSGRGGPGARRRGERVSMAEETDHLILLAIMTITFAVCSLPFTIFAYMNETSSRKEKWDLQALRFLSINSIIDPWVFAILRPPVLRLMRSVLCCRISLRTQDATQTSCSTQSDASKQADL
READOUT LABEL: Kb (µM)
Write the value in µM as a bare number.

Task: What does the data say about its Kb? Entry: Cc1cc(/C=C/C(=O)NCCn2c(C(F)(F)F)cc3ccccc32)cc(C)c1F [TG7-13]
Output: 0.288

Task: Query (molecule): Cc1cc2ccccc2n1CCNC(=O)c1ccc(N(C)C)cc1 [TG7-142] ; field requested: Kb
Output: 0.0104

Task: Dear colleague, I am looking for the recorded Kb of the following molecule: Cc1cc2ccccc2n1CCNC(=O)c1ccc(N)cc1 [TG7-143]
Output: 0.207

Task: Look up Kb: Cc1cc2ccccc2n1CCNC(=O)c1cnc2ccc(F)cc2c1O [TG7-148]
Output: 0.174

###

tested on: C6G cells; assay: CellTiter-Glo luminescent cell viability assay (cytotoxicity)
Would you kindly list Therapeutic index (in vitro), CC50/KB for EP2 for each of these compounds?

Task: Consider the compound shown here: `COc1ccc(C=CC(=O)NCCn2c(C)cc3cc(F)ccc32)cc1` What is its recorded Therapeutic index (in vitro), CC50/KB for EP2?
Output: 15,400

Task: Quick check: Therapeutic index (in vitro), CC50/KB for EP2 of `COc1ccc(/C=C/C(=O)NCCn2c(C)cc3cc(F)ccc32)cc1Cl` ?
Output: 95,400

Task: Quick check: Therapeutic index (in vitro), CC50/KB for EP2 of `Cc1cc2cc(F)ccc2n1CCNC(=O)C=Cc1ccc(F)c(F)c1` ?
Output: 97,700

Task: Which Therapeutic index (in vitro), CC50/KB for EP2 is listed for `COc1ccc(C=CC(=O)NCCn2c(C)nc3ccccc32)cc1OC` ?
Output: 473

Task: If you can, please state the reported Therapeutic index (in vitro), CC50/KB for EP2 value of `COc1cc(C=CC(=O)NCCn2cnc3ccccc32)cc(OC)c1OC` .
Output: 123

Task: Query (compound): `CCOc1ccc(C=CC(=O)NCCn2c(C)cc3ccccc32)cc1OC` ; field requested: Therapeutic index (in vitro), CC50/KB for EP2
Output: 71,800

Task: Returns the measured Therapeutic index (in vitro), CC50/KB for EP2 for the input compound. Input: `Cc1cc2ccccc2n1CCNC(=O)C=Cc1ccc(F)c(F)c1`
Output: 23,400

Task: Looking for the measured Therapeutic index (in vitro), CC50/KB for EP2 of `Cc1cc2ccccc2n1CCNC(=O)C=Cc1cc(F)c(F)c(F)c1` , can you help?
Output: 2,460

Task: What does the data say about its Therapeutic index (in vitro), CC50/KB for EP2? Entry: `COc1ccc(/C=C/C(=O)NCCn2c(C(F)(F)F)cc3ccccc32)cc1OC`
Output: 3,550

Task: For `Cc1cc2cc(F)ccc2n1CCNC(=O)C=Cc1cc(F)c(F)c(F)c1` , what is its reported Therapeutic index (in vitro), CC50/KB for EP2?
Output: 2,230

Task: Which value of Therapeutic index (in vitro), CC50/KB for EP2 has been reported for `COc1ccc(/C=C/C(=O)NCCn2c(C)cc3ccccc32)cc1Cl` in the records?
Output: 253,000

Task: Any idea what Therapeutic index (in vitro), CC50/KB for EP2 was measured for `COc1cc(OC)c(C=CC(=O)NCCn2c(C)cc3ccccc32)cc1Br` ?
Output: 155,000
